Tested on: wild oat
Assay: Test B postemergence herbicide test
Assay type: in vivo, Avena fatua
Details: postemergence, 500 g ai/ha; visual rating, scale 0 (no effect) to 100 (complete control)
Description: At the same time, plants selected from these crop and weed species and also blackgrass (Alopecurus myosuroides Huds.), wheat (Triticum aestivum L.) and wild oat (Avena fatua L.) were treated with postemergence applications of test chemicals formulated in the same manner. […] Treated plants and controls were maintained in a greenhouse for 13 to 15 days, after which time all species were compared to controls and visually evaluated. […]
test_readout: Oat, Wild plant response rating
// no unit, no text: just the number

Recorded Oat, Wild plant response rating, per entry:
CCc1nc(C(C)(C)C)sc1C(=O)Nc1cc(C(=O)N(CC)CC)ccc1F [Compound 230] : 40
CCC(C)c1cc(C(=O)Nc2cccc(C(C)=NO)c2)n(C)n1 (centres unmarked) [Compound 120] : 10
CCOC(=O)c1cccc(NC(=O)c2cn(C(C)(C)C)nc2CC)c1 [Compound 186] : 20
CCCCNS(=O)(=O)c1cccc(NC(=O)c2cc(C(C)(C)C)nn2C)c1 [Compound 125] : 0

Which measured Oat, Wild plant response rating value corresponds to C=CCNC(=O)c1cccc(NC(=O)c2sc(C(C)(C)C)nc2CC)c1 [Compound 207] ? 20

* * *

test system: morningglory; assay: Test C pre-/postemergence herbicide test; assay type: in vivo, Ipomoea coccinea; design: key: 0 = no effect, 100 = complete control; conditions: 250 g ai/ha; scale 0-100; preemergence
test_readout: Plant response rating, Morningglory
// no unit, no text: just the number

Recorded Plant response rating, Morningglory, per entry:
CCNC(=O)c1cccc(NC(=O)c2cc(C3(C)CC3)nn2CC)c1 : 10
C=CCNC(=O)c1cccc(NC(=O)c2sc(C(C)(C)C)nc2CC)c1 : 0

Query the reported Plant response rating, Morningglory for morningglory; item: `CCn1nc(C(C)(C)C)cc1C(=O)Nc1cccc(OC(F)F)c1` 0

Query the reported Plant response rating, Morningglory for morningglory; item: `CCNC(=O)c1cccc(NC(=O)c2sc(C(C)(C)C)nc2C)c1` 85

* * *

System: rice
Assay: Test B flooded paddy test
Type: in vivo, Oryza sativa
Details: 1000 g ai/ha, scale 0 to 100 (0 no effect, 100 complete control)
Protocol: At the same time, plants selected from these crop and weed species and also blackgrass (Alopecurus myosuroides Huds.), wheat (Triticum aestivum L.) and wild oat (Avena fatua L.) were treated with postemergence applications of test chemicals formulated in the same manner. […] Treated plants and controls were maintained in a greenhouse for 13 to 15 days, after which time all species were compared to controls and visually evaluated. […]
Rice plant response rating: recorded values
// no unit, no text: just the number

CCNC(=O)c1ccc(F)c(NC(=O)c2cn(C(C)(C)C)nc2C)c1 [Compound 345] : 40
CCNC(=O)c1cccc(NC(=O)c2cc(C3(C)CC3)nn2CC)c1 [Compound 306] : 60
CCc1nn(C(C)(C)C)cc1C(=O)Nc1cc(C(=O)N(C)C)ccn1 [Compound 293] : 90
CCNC(=O)c1ccc(F)c(NC(=O)c2nn(C(C)(C)C)nc2CC)c1 [Compound 362] : 60
CCc1nn(C(C)(C)C)nc1C(=O)Nc1cccc(C(=S)N(C)C)c1 [Compound 395] : 80

Which measured Rice plant response rating value corresponds to CCn1nc(C(C)(C)C)cc1C(=O)Nc1cc(OC)ccc1OC [Compound 297] ? 20

Which measured Rice plant response rating value corresponds to CCN(C)C(=O)c1ccc(F)c(NC(=O)C2CC(C(C)(C)C)=NN2CC)c1 (racemic) [Compound 307] ? 90

* * *

system: large crabgrass; test: Test C pre-/postemergence herbicide test; type: in vivo, Digitaria sanguinalis; conditions: 125 g ai/ha; scale 0 (no effect) to 100 (complete control); visual, 12 to 14 days; preemergence
Plant response rating, Crabgrass, Large: recorded values
// no unit, no text: just the number

Recorded Plant response rating, Crabgrass, Large, per entry:
CCOC(=O)c1cccc(NC(=O)c2cc(C(C)(C)C)nn2CC)c1C [Compound 88] : 95
CCNC(=O)c1cccc(NC(=O)c2cc(C3(C)CC3)nn2CC)c1 [Compound 306] : 100
CCc1nn(C(C)(C)C)cc1C(=O)Nc1cc(C(=O)N(CC)CC)ccc1F [Compound 223] : 100
CCOC(=O)c1cc(NC(=O)c2cc(C(C)(C)C)nn2CC)ccc1OC [Compound 96] : 100

# evaluate next
Which measured Plant response rating, Crabgrass, Large value corresponds to CCNC(=O)c1cccc(NC(=O)c2sc(C(C)(C)C)nc2CC)c1 [Compound 210] ? 80

* * *

tested on: corn; experiment: Test B pre-/postemergence herbicide test; type: in vivo, Zea mays; settings: preemergence, 125 g ai/ha; 0 to 100 scale, 0 is no effect, 100 is complete control
test_readout: Plant response rating, Corn
// no unit, no text: just the number

Which measured Plant response rating, Corn value corresponds to CCn1nc(C(C)(C)C)cc1C(=O)Nc1cccc([S+]([O-])C(F)(F)F)c1 (centres unmarked) ? 0

Which measured Plant response rating, Corn value corresponds to `CCON=C(C)c1cccc(NC(=O)c2cc(C(C)(C)C)nn2C)c1` ? 0

Which measured Plant response rating, Corn value corresponds to `CCn1nc(C(C)(C)C)cc1C(=O)Nc1cccc(C(=O)OCC(F)(F)F)c1` ? 0

* * *

test system: velvetleaf; experiment: Test C pre-/postemergence herbicide test; type: in vivo, Abutilon theophrasti; details: Preemergence, 500 g ai/ha; scale 0 to 100, 0 no effect, 100 complete control
test_readout: Velvetleaf plant response rating
// no unit, no text: just the number

Recorded Velvetleaf plant response rating, per entry:
C#CCn1nc(C(C)(C)C)cc1C(=O)Nc1cccc(C(=O)NCC)c1 [Compound 50] : 5
CCN(C)C(=O)c1cccc(NC(=O)c2cc(C(C)(C)C)nn2CC)c1 [Compound 48] : 70
CC(=NO)c1cccc(NC(=O)c2cc(C(C)(C)C)nn2CCF)c1 [Compound 115] : 100
CCOC(=O)c1cccc(NC(=O)c2cc(C(C)(C)C)nn2CC)c1C [Compound 88] : 50
C#CCNC(=O)c1cccc(NC(=O)c2cc(C(C)(C)C)nn2CC)c1 [Compound 47] : 100
CCOC(=O)c1cc(NC(=O)c2cc(C(C)(C)C)nn2CC)ccc1OC [Compound 96] : 100

Query the reported Velvetleaf plant response rating for velvetleaf; item: CCCN1CCc2c(NC(=O)c3cc(C(C)(C)C)nn3CC)cccc2C1=O [Compound 65] 60

Query the reported Velvetleaf plant response rating for velvetleaf; item: CCNC(=O)c1ccc(F)c(NC(=O)c2cc(C(C)(C)C)nn2CC)c1 [Compound 2] 100

Query the reported Velvetleaf plant response rating for velvetleaf; item: CCc1nn(C(C)(C)C)cc1C(=O)Nc1cccc(C(=O)N(CC)CC)c1 [Compound 182] 100

* * *

test system: quackgrass; assay: Test E pre-/postemergence herbicide test; assay type: in vivo, Elytrigia repens; details: Preemergence; 500 g ai/ha; scale 0 (no effect) to 100 (complete control)
Plant response rating, Quackgrass: recorded values

CCn1nc(C(C)(C)C)cc1C(=O)Nc1cc(C(=S)N(C)C)ccc1F : 95

Which measured Plant response rating, Quackgrass value corresponds to `Cc1nn(C(C)(C)C)nc1C(=O)Nc1cccc(C(=O)N2CC=CC2)c1` ? 60

Which measured Plant response rating, Quackgrass value corresponds to `CCc1nn(C(C)(C)C)cc1C(=O)Nc1cc(C(=O)N(C)C)ccn1` ? 95

Which measured Plant response rating, Quackgrass value corresponds to `CCNC(=O)c1ccc(F)c(NC(=O)c2cc(C(C)(C)C)nn2CC)c1` ? 80

* * *

Rice plant response rating: recorded values
system: rice; test: Test C flooded paddy test; type: in vivo, Oryza sativa; conditions: 250 g ai/ha, scale of 0 to 100, 0 is no effect, 100 is complete control
// no unit, no text: just the number

CCn1nc(C2(C)CC2)cc1C(=O)Nc1cccc(C(=O)N(C)C)c1 : 80
CCOC(=O)c1cccc(NC(=O)c2cn(C(C)(C)C)nc2CC)c1 : 60

Which measured Rice plant response rating value corresponds to `CCNC(=O)c1cccc(NC(=O)c2nn(C(C)(C)C)cc2Cl)c1` ? 0

Which measured Rice plant response rating value corresponds to `CCn1nc(C(C)(C)C)cc1C(=O)Nc1cccc(OC(F)F)c1` ? 45

Which measured Rice plant response rating value corresponds to `CCNC(=O)c1cc(NC(=O)c2cc(C(C)(C)C)nn2CC)ccc1F` ? 35

Which measured Rice plant response rating value corresponds to `CCc1nn(C(C)(C)CC)nc1C(=O)Nc1cc(C(=O)N(C)C)ccc1F` ? 60

Which measured Rice plant response rating value corresponds to `CCNC(=O)c1ccc(OC)c(NC(=O)c2cc(C(C)(C)C)nn2CC)n1` ? 65

Which measured Rice plant response rating value corresponds to `CCNC(=O)c1cccc(NC(=O)c2cc(C3(C)CC3)nn2CC)c1` ? 55

Which measured Rice plant response rating value corresponds to `CCc1nn(C(C)(C)C)nc1C(=S)Nc1cccc(C(=S)N(C)C)c1` ? 75
